assay.readout: melting point

{"molecule": "COc1ccccc1Nc1nc(N)nc(-c2cccs2)n1 [Compound 122]", "melting point": "165 to 167 °C"}

Input: # get_value(readout='melting point', item= COc1ccc(Nc2nc(N)nc(-c3cccc(C)c3)n2)cc1 (hydrate or solvate) [Compound 57] )
Output: 150 to 152 °C

Input: # get_value(readout='melting point', item= Nc1nc(Nc2ccccc2Cl)nc(-c2ccccc2)n1 (hydrate or solvate) [Compound 4] )
Output: 82 to 84 °C

* * *

assay.readout: melting point

Answered cases to consult:
{"molecule": "Nc1nc(Nc2ccccc2F)nc(-c2cccs2)n1 (hydrate or solvate)", "melting point": "165 to 167 °C"}
{"molecule": "COc1ccc(Nc2nc(N)nc(-c3ccc(F)cc3)n2)cc1", "melting point": "158 to 160 °C"}
{"molecule": "COc1ccc(Nc2nc(N)nc(-c3cccs3)n2)cc1 (hydrate or solvate)", "melting point": "139 to 141 °C"}

Input: # get_value(readout='melting point', item= `Nc1nc(Nc2ccc(F)cc2)nc(-c2ccccc2)n1` )
Output: 172 to 174 °C

Input: # get_value(readout='melting point', item= `Nc1nc(Nc2ccccc2F)nc(-c2ccccc2)n1` )
Output: 156 to 158 °C

# credit: paper PMC9050923
